Origin of measurements: PubChem BioAssay AID2060894

Test system: K12877-001-R-J1-PDC complex spheroid viability
assay: Anticancer human tumor K12877-001-R-J1-PDC patient-derived lung adenocarcinoma cell line growth inhibition [RAS]
experimental-parameters: curve of first compound; second compound 0.0316 µM
We begin with a simple list: items and their reported IC50.
Only the number, expressed in nM, is required.

// IC50 (K12877-001-R-J1-PDC complex spheroid viability) for CCC(CC)c1cc(NC2CCC(N)C2)n2nccc2n1 (stereo not drawn) + C=CC(=O)N1CCN(c2nc(OCC3CCCN3C)nc3c(F)c(-c4nc(N)cc(C)c4C(F)(F)F)c(Cl)cc23)C(C)C1 = 1580

// switching to the query compound
Record CCC(CC)c1cc(NC2CCC(N)C2)n2nccc2n1 (stereo not drawn) + C#Cc1c(F)ccc2cc(O)cc(-c3ncc4c(N5CC6CCC(C5)N6)nc(OCC56CCCN5CC(F)C6)nc4c3F)c12 has K12877-001-R-J1-PDC complex spheroid viability IC50 equal to 1540

====

System: K12877-001-R-J1-PDC complex spheroid viability
assay: Anticancer human tumor K12877-001-R-J1-PDC cell line growth inhibition [RAS];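 further: spheroids exposed to agents for one week before readout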;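 on viability, T/C: tumour cells co-cultured with HUVEC and mesenchymal stem cells in spheroids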
experimental-parameters: second compound 0.003 µM; first compound 0.00316 µM; stronger effect = lower value
Under this convention, 1 denotes viability, T/C strictly below 70% and 0 denotes viability, T/C at or above 70%.

Field: example entries. Status: answers known.
Please check: viability, T/C for C=CC(=O)N1CCN(c2nc(OCC3CCCN3C)nc3c(F)c(-c4nc(N)cc(C)c4C(F)(F)F)c(Cl)cc23)C(C)C1 (stereo not drawn) + CCn1c(-c2cc(N3CCN(C)CC3)cnc2C(C)OC)c2c3cc(ccc31)-c1csc(n1)CC(NC(=O)C1CC1C)C(=O)N1CCCC(N1)C(=O)OCC(C)(C)C2 , strictly under 70% or not?
1

Determine whether this compound shows viability, T/C lower than 70% (ties excluded): C=CC(=O)N1CCN(c2nc(OCC3CCCN3C)nc3c(F)c(-c4nc(N)cc(C)c4C(F)(F)F)c(Cl)cc23)C(C)C1 (stereo not drawn) + CCn1c(-c2cccnc2C(C)OC)c2c3cc(ccc31)N1CCOC(CC(NC(=O)C(C(C)C)N(C)C(=O)C3(F)CCN(C(=O)C#CC(C)(C)N(C)C)CC3)C(=O)N3CCCC(N3)C(=O)OCC(C)(C)C2)C1
0

For this compound, is viability, T/C lower than 70%? CC(C)n1nc(-c2ccc3oc(N)nc3c2)c2c(N)ncnc21 + CCn1c(-c2cccnc2C(C)OC)c2c3cc(ccc31)N1CCOC(CC(NC(=O)C(C(C)C)N(C)C(=O)C3(F)CCN(C(=O)C#CC(C)(C)N(C)C)CC3)C(=O)N3CCCC(N3)C(=O)OCC(C)(C)C2)C1
1

Is 70% strictly greater than the compound's reported viability, T/C? compound: O=C(c1ccc(F)c(F)c1Nc1ccc(I)cc1F)N1CC(O)([C@@H]2CCCCN2)C1 + CCn1c(-c2cccnc2C(C)OC)c2c3cc(ccc31)N1CCOC(CC(NC(=O)C(C(C)C)N(C)C(=O)C3(F)CCN(C(=O)C#CC(C)(C)N(C)C)CC3)C(=O)N3CCCC(N3)C(=O)OCC(C)(C)C2)C1
0

Further cases:
Strictly below 70% in viability, T/C? Nc1ccn(C2OC(CO)C(O)C2(F)F)c(=O)n1 (stereo not drawn) + CCn1c(-c2cc(N3CCN(C)CC3)cnc2C(C)OC)c2c3cc(ccc31)-c1csc(n1)CC(NC(=O)C1CC1C)C(=O)N1CCCC(N1)C(=O)OCC(C)(C)C2
1
